apparent KD of MS2 coat protein values by entry
- Tested on: MS2 coat protein
- assay-details: apparent KD of MS2 coat protein; designed switch direction (-1 OFF switch, 1 ON switch): -1; higher = weaker reporter binding
- run-conditions: input ligand: FMN 200 uM
The figure you give is taken to be in nM; do not add the unit.

sequence-content: GAGUACUGAGGAUAUACAUGAGGAUCACCCAUGUGUUCCAACUAGGAAUCUAGAAUAUGUAGAAGGCAGUGCUG [salish99_ex3_r4_702] (Eterna round: R97, puzzle: Exclusion 3)
test-value: 71.3

Ask: So what's the measured apparent KD of MS2 coat protein for this one? AACCUGAGGCAAAGCUUUAGGUGUACAUGAGGAUCACCCAUGUAGGAUAUGGUAAGCAAAGCUUACCAGAAGGACAUAAUGAUA [Mat - Exclusion NG 3 - Mod of JL - D49] (Eterna round: R96, puzzle: Exclusion NG 3)
Reply: 86.5

Ask: So what's the measured apparent KD of MS2 coat protein for this one? AGUGAACAUGAGGAUCACCCAUGUUAGGAUAUGUAUAAUCGACGAGCCUUUUCGUCGGGCAGAAGGGAUGGUGA [Eternabot (L2) Solution 95] (Eterna round: R97, puzzle: Exclusion 1)
Reply: 44.7

Ask: So what's the measured apparent KD of MS2 coat protein for this one? CAUUCCUAGCGAGGAUAUCAGUAAAAGGGAAGCUGAGAAGGCGCAAACAUGAGGAUCACCCAUGUCACACGCGGGUAGUUUUCC [Uslazaxe] (Eterna round: R96, puzzle: Exclusion NG 1)
Reply: 16.2

Ask: So what's the measured apparent KD of MS2 coat protein for this one? GGCGCACAUGAGGAUCACCCAUGUGAGGAUAUGUGGCGAUCGUCGAUAGACGAUAGCCACAGAAGGCACAUGCC [Mat - Exclusion 1 - Eli Mod - D20] (Eterna round: R97, puzzle: Exclusion 1)
Reply: 74

Ask: So what's the measured apparent KD of MS2 coat protein for this one? GAUUAACAUGAGGAUCACCCAUGUGAGGAUAUGAACUUGCCCACUUACCCUUUAGAGUUUAGAAGGCGCAUUCU [1986#33] (Eterna round: R97, puzzle: Exclusion 1)
Reply: 22.4
